- TESTED_TARGET: Cannabinoid receptor 1 (Homo sapiens, UniProt P21554)
- Sequence (P21554 whole entry): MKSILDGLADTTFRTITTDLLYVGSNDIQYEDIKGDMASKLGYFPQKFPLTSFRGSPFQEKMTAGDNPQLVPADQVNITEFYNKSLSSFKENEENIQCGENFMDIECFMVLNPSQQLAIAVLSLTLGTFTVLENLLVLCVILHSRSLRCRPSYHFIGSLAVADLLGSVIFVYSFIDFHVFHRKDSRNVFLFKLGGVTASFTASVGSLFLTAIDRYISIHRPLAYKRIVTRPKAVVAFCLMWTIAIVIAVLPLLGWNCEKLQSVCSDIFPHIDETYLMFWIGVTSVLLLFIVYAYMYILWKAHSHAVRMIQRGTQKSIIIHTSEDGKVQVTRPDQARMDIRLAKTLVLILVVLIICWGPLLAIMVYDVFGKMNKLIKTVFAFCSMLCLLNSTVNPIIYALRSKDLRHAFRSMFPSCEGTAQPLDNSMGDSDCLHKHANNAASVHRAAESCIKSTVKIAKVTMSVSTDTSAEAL
- EXPERIMENT_DESCRIPTION: Agonist activity at human CB1 receptor expressed in HEK293 EBNA cells by [35S]GTPgamma binding assay
- Format: functional, cell-based
I'd be grateful if you could share measured log10(EC50) for these entries.
Short version: log10 scale, EC50, nM.

CCOc1ccc(Cn2c3c(c4cc(C(=O)N5CCC(C)CC5)ccc42)CN(C2CCOCC2)CC3)cc1 :: 1.72

State recorded log10(EC50) for all listed compounds.
1. CCCn1c2c(c3cc(C(=O)N4CCC(C)CC4)ccc31)CN(C1CCOCC1)CC2
2. C=CCn1c2c(c3cc(C(=O)N4CCC(C)CC4)ccc31)CN(C1CCCCC1)CC2
3. C=CCn1c2c(c3cc(C(=O)N4CCC(C)CC4)ccc31)CN(Cc1ccccn1)CC2
4. CCCn1c2c(c3cc(C(=O)N4CCC(C)CC4)ccc31)CN(C1CCCC1)CC2

Resp:
2.01
1.78
3.73
1.65
